# MEASURED TARGET: basic fibroblast growth factor (bFGF) (UniProt P09038 P09038:135-288)
# Sequence (P09038 135-288, one chain of several): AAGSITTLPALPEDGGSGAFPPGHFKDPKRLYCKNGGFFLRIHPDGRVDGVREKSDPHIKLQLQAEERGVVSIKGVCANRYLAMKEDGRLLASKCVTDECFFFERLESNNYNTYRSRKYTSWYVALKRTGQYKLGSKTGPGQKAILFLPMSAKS
# EXPERIMENT DESCRIPTION: filter
# MEASUREMENT PARAMETERS: tags: Bachem California, 18 kDa, 154 aa; 125I-labeled for receptor assays
RESULT TYPE: pKd
Answers are plain numbers, as −log10 of the molar value.

AGGCCAGGGCTATGCAAATCGCGGCGCCTATGGCC (ssDNA) [D12t2]	9.00

// batch mode: one pKd value per listed entry
1. CGAGGAGCTTTAGCGCCACAGGTT (ssDNA) [m234t2]
2. GCGGGGCTCTGCAAAGGACACAGGTCCTACGCATCAG (ssDNA) [M235t2]
3. GGCGGGGCTACGTACCGGGGCTTTGTAAAACCCCGCC (ssDNA) [M225t3GC]
4. GCGGGGCTATGTAAATTACTGCTGTACTACGCATC (ssDNA) [M19t2]

A)
1. 8.22
2. 9.00
3. 9.70
4. 9.00

The values you see were collected from patent US6177557.
